Would you kindly list melting point for each of these compounds?

Please give the measured melting point for this compound: `C[C@H](NS(=O)(=O)c1ccc(-c2c(C#N)c3cc(F)c(C4CC4)cc3n2-c2ncccn2)nc1)C(F)(F)F`
236 to 240 °C

Need melting point, item `Cc1ccc2c(c1)c(C#N)c(-c1ncc(S(=O)(=O)NC(C)C)cn1)n2C1CCCC1`
193 to 198 °C

I have this compound here, `C[C@H](NS(=O)(=O)c1ccc(-c2c(C#N)c3cc(F)c(OC(F)F)cc3n2CCO)nc1)C(F)(F)F` , and I need its recorded melting point.
203 to 208 °C

Can you look up the measured melting point of `Cc1ccc2c(C#N)c(-c3ccc(S(=O)(=O)N[C@@H](C)C(F)(F)F)cn3)n(-c3ncccn3)c2c1` for me?
195 to 198 °C

---

Kindly state melting point for each of the entries shown.

Find the recorded melting point belonging to `Cc1ccnc(-n2c(-c3ccc(S(=O)(=O)N[C@@H](C)C(F)(F)F)cn3)c(C#N)c3cc(F)c(C)cc32)c1` and report it.
200 to 204 °C

Look up melting point: `C[C@H](NS(=O)(=O)c1cnc(-c2c(C#N)c3ccc(CC(F)F)cc3n2C2CCCC2)nc1)C1CC1`
181 to 189 °C

Field request: melting point | item: `N#Cc1c(-c2ccc(S(N)(=O)=O)cn2)n(C2CCC2)c2cc(OC(F)F)ccc12`
204 to 205 °C

Bench note: what melting point did `Cc1cc2c(cc1F)c(C#N)c(-c1ccc(S(=O)(=O)N[C@@H](C)C(F)(F)F)cn1)n2-c1c[nH]nc1C` show?
238.8 to 244 °C

Entry `C[C@@H](NS(=O)(=O)c1ccc(-c2c(C#N)c3cc(F)ccc3n2-c2ncccn2)nc1)C(F)(F)F` has what melting point?
202 to 205 °C

# input compound: `COc1ccc2c(C#N)c(-c3ccc(S(=O)(=O)N[C@H](C)C(F)(F)F)cn3)n(C3CCCCC3)c2c1` ; wanted: its melting point
198 to 204 °C

# query: melting point of entry `N#Cc1c(-c2ccc(S(=O)(=O)NC3(C(F)(F)F)CC3)cn2)n(C2CCCC2)c2ccc(F)cc12`
202 to 206 °C

Returns the measured melting point for the input compound. Input: `Cc1cc2c(cc1F)c(C#N)c(-c1ccc(S(=O)(=O)N[C@@H](C)C(F)(F)F)cn1)n2-c1cncs1`
234 to 238 °C

Suppose we examine the compound `Cc1cnc(-n2c(-c3ccc(S(=O)(=O)N[C@@H](C)C(F)(F)F)cn3)c(C(N)=O)c3cc(F)c(C)cc32)cn1` ; what melting point value has been reported?
202 to 208 °C

Bench note: what melting point did `C[C@@H](NS(=O)(=O)c1ccc(-c2c(C#N)c3ccc(OC(F)(F)F)cc3n2C2CCCCC2)nc1)C(F)(F)F` show?
181 to 183 °C

Reported melting point, compound `Cc1cc2c(cc1F)c(C#N)c(-c1ccc(S(=O)(=O)NC(CF)CF)cn1)n2C1CCC1` : ____
186 to 188 °C

Look at this compound and give its reported melting point. `N#Cc1c(-c2ccc(S(=O)(=O)NC(CF)CF)cn2)n(-c2ccccn2)c2cc(C3CC3)ccc12`
210 to 213 °C

Param item = `N#Cc1c(-c2ccc(S(=O)(=O)NC(CF)CF)cn2)n(-c2ccccc2)c2cc(OC(F)F)ccc12` ; retrieve measured melting point.
200 to 202 °C

Which measured melting point value corresponds to `N#Cc1c(-c2ccc(S(=O)(=O)NC(CF)CF)cn2)n(-c2ccccc2)c2cc(C3CC3)ccc12` ?
171 to 175 °C

Given the entry `CC(C)n1c(-c2ccc(S(=O)(=O)NC3CCC3)cn2)c(C#N)c2ccc(OC(F)F)cc21` , report its measured melting point.
130 to 132 °C

What does the record list as melting point for `COc1ccc2c(C#N)c(-c3ncc(S(=O)(=O)N[C@@H](C)C4CC4)cn3)n(C3CCCC3)c2c1` ?
192 to 194 °C

# query: melting point of entry `Cc1cc2c(cc1F)c(C#N)c(-c1ccc(S(=O)(=O)N[C@@H](C)C(F)(F)F)cn1)n2-c1ncccc1Cl`
221 to 225 °C

What measured melting point goes with `CCc1cc2c(cc1F)c(C#N)c(-c1ccc(S(=O)(=O)N[C@@H](C)C(F)(F)F)cn1)n2-c1ccc(C(F)(F)F)cc1` ?
276 to 282 °C

// returns reported melting point for input `Cc1cc2c(cc1Cl)c(C#N)c(-c1ccc(S(=O)(=O)N[C@H](C)C(F)(F)F)cn1)n2C1CCC1`
213 to 215 °C

Cited source: patent US8735414B2
